Sourced from patent US4443436A

Items are presented alongside their recorded MIC.
System: Mycoplasma gallisepticum
measurement_description: MIC, broth-dilution microtiter test, Mycoplasma gallisepticum
Format: cell-based
setup_conditions: Mycoplasmoides gallisepticum; Mycoplasma gallisepticum; broth-dilution microtiter; read-out: MIC
Field format: number, assumed µg/mL, no unit text.

{"compound": "CCC1OC(=O)CC(O)C(C)C(OC2OC(C)C(O)C(N(C)C)C2O)C(CCOc2ccc(C(=O)c3ccccc3)cc2)CC(C)C(=O)C=CC(C)=CC1COC1OC(C)C(O)C(OC)C1OC (centres unmarked)", "system_tested": "Mycoplasma gallisepticum", "MIC, µg/mL": 0.19}

With those in mind, consider the next compound.
// recorded MIC for CCC1OC(=O)CC(O)C(C)C(OC2OC(C)C(OC3CC(C)(O)C(O)C(C)O3)C(N(C)C)C2O)C(CCOC(=O)COc2ccccc2)CC(C)C(=O)C=CC(C)=CC1COC1OC(C)C(O)C(OC)C1OC (centres unmarked) : 1.56
